# Tested on: KRAS PDC multicell spheroid viability;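 also: spheroids exposed to compounds for 7 days; 100% = DMSO vehicle control viability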
# method notes: Anticancer human tumor 825966-067-R-J1-PDC patient-derived colon carcinoma cell line growth inhibition [KRAS2]
# stated conditions: second compound 0.0316 µM; first compound 0.001 µM; stronger effect = lower value
Here, each record is paired with measured viability, T/C data.
Express your answer in %, writing the number without its unit.

// worked examples, viability, T/C included
# return recorded viability, T/C for entry CC(=O)Nc1cccc(-n2c(=O)n(C3CC3)c(=O)c3c(Nc4ccc(I)cc4F)n(C)c(=O)c(C)c32)c1 + C=CC(=O)N1CCN(c2nc(OCC3CCCN3C)nc3c2CCN(c2cccc4cccc(C)c24)C3)CC1CC#N
119

Dear colleague, please send me the reported viability, T/C for CC(C)n1nc(-c2ccc3oc(N)nc3c2)c2c(N)ncnc21 + C=CC(=O)N1CCN(c2nc(OCC3CCCN3C)nc3c2CCN(c2cccc4cccc(C)c24)C3)CC1CC#N when you can.
86.4

Specify reported viability, T/C for the compound shown: Cn1ncnc1[C@H]1c2n[nH]c(=O)c3cc(F)cc(c23)N[C@@H]1c1ccc(F)cc1 + C=CC(=O)N1CCN(c2nc(OCC3CCCN3C)nc3c2CCN(c2cccc4cccc(C)c24)C3)CC1CC#N
108

Please examine the following record next.
For the compound CN(C)C/C=C/C(=O)Nc1cc2c(Nc3ccc(F)c(Cl)c3)ncnc2cc1O[C@H]1CCOC1 + C=CC(=O)N1CCN(c2nc(OCC3CCCN3C)nc3c2CCN(c2cccc4cccc(C)c24)C3)CC1CC#N , give its measured viability, T/C value.
105
